- assayProcedure: inhibitors of mutant huntingtin aggregation, primary screen, imaging, exon1htt(103Q)mCFP cells, high-content imaging (AID 483);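 also: compound exposure lasted 3 days before fixation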
- conditionContext: exon1htt(103Q)mCFP cell line, aggregate imaging, at 2 µM; stronger effect = higher value
Known inhibition of aggregation of a selection of compounds
Report the figure in % without appending any unit label.

Solved cases (8 shown):
compound	inhibition of aggregation / %
Cc1ccc2[nH]c3c(N4CCOCC4)ncnc3c2c1	18.9
CC1C/C=C/C=C/C=C/C=C/C(O[C@@H]2O[C@H](C)[C@@H](O)[C@H](N)[C@@H]2O)CC2OC(O)(CC(O)CC3OC3/C=C/C(=O)O1)CC(O)C2C(=O)O (stereo not given in full)	0.7
COC(=O)c1cc(=O)n2c(-c3ccc(OC)cc3)csc2n1	8.7
CC[N+](C)(CC)CCOC(=O)C(O)(c1ccccc1)C1CCCCC1 (stereo not given)	7.2
c1cc2c(cc1C1=Nn3c(nnc3C3CCCCC3)SC1)OCO2	5.8
COc1ccc2c(c1)[nH]c1c(=O)n(CCN(C)C)cnc12	-8.1
O=C(C1CCN(c2nnc(-n3cccc3)s2)CC1)N1CCc2ccccc2C1	-15.5
COc1cccc(OC)c1OCCN1CCN(C(=O)c2ccco2)CC1	10.7

## Input Consider the compound `CC(C)(C)NCc1cc2ccccc2[nH]c1=O` and give its measured inhibition of aggregation.
## Output -3.4

## Input Consider the compound `N[C@@H](C(=O)N[C@@H]1C(=O)N2C(C(=O)O)=C(Cl)CS[C@H]12)c1ccccc1` and give its measured inhibition of aggregation.
## Output -5.3

----------
- assayProcedure: inhibitors of TNFa-induced NFkB p65 translocation, primary screen, imaging, HUVEC, MLSMR starter and 10KST1 sets (AID 438);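 also: compound added about 3h40 before a 20 min TNFalpha stimulation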
- conditionContext: HUVEC TNFa-induced p65 nuclear translocation; measured here: nuclei count (cytotoxicity indicator), at 2.08 µM
Assign met to entries whose cell count meets or exceeds 500; assign not met to the rest.

// known answers, use as guide
> print(dat)
                                    compound    class
 1     CCCCCCOC(=O)CCn1[nH]c(=O)c2ccccc2c1=O      met
 2      Cn1c(=O)n(C)c2cc(C(=O)c3ccccc3)ccc21      met
 3    CN=C1c2c(-c3ccccc3)c3cc(OC)ccc3n2CCN1C      met
 4  Cc1ccc(NC(=O)CSC2=C(C#N)C(c3ccco3)C3=C(CCCC3=O)N2)cc1 (centres undefined)  not met
 5  CCC(NC(=O)Nc1ccc(O)cc1)(C(F)(F)F)C(F)(F)F      met
 6  COc1ccc(NC(=O)Nc2cccc(C(=O)N3CCOCC3)c2)cc1OC      met
 7  CCOC(=O)c1ccc(NC(=O)CCC(CC)C(=O)O)cc1 (centres undefined)  not met
 8         O=C(c1ccccc1F)N1CCC(N2CCCCCC2)CC1  not met
 9  CC1CN(c2oc(-c3cccs3)nc2C#N)CC(C)O1 (centres undefined)  not met
10  COCCOC(=O)c1c(C)nc(SCC(=O)Nc2ccc(C)cc2)c(C#N)c1-c1ccco1  not met

## Input Is cell count for O=C(O)CC1Sc2nc3ccccc3n2C1=O (centres undefined) at or above 500?
## Output met

## Input Is cell count for `CCOC(=O)N1CCN(/C=C(\C#N)c2nc3ccccc3s2)CC1` at or above 500?
## Output not met

## Input Is cell count for `CCc1nc2sc3c(c2c(=O)o1)CCCC3` at or above 500?
## Output met

## Input Is cell count for COc1ccc(N(CN2C(=O)C3C4C=CC(C4)C3C2=O)C(=O)c2ccco2)cc1 (centres undefined) at or above 500?
## Output met

## Input Is cell count for CN(C)c1ccc(C=NCC2(O)CCOC(C)(C)C2)cc1 (centres undefined) at or above 500?
## Output not met

## Input Is cell count for `CCOC(=O)CCc1c(C)c(C#N)c2nc3ccccc3n2c1-n1ccnc1C` at or above 500?
## Output met

## Input Is cell count for `CCCCOc1ccc(CC(=O)NO)cc1` at or above 500?
## Output met

## Input Is cell count for `CSc1nnc(N(CCC#N)CCC#N)s1` at or above 500?
## Output not met

## Input Is cell count for COCCN(CCOC)C(=O)C12CCC(C)(C(=O)C1)C2(C)C (centres undefined) at or above 500?
## Output not met

## Input Is cell count for COc1cccc(-c2nc(N3CC(C)CC(C)C3)c3ccccc3n2)c1O (centres undefined) at or above 500?
## Output met

----------
- tgt: Voltage-gated potassium channel subunit beta-2 (Rattus norvegicus) (UniProt P62483)
- Sequence (P62483 whole entry, looked up): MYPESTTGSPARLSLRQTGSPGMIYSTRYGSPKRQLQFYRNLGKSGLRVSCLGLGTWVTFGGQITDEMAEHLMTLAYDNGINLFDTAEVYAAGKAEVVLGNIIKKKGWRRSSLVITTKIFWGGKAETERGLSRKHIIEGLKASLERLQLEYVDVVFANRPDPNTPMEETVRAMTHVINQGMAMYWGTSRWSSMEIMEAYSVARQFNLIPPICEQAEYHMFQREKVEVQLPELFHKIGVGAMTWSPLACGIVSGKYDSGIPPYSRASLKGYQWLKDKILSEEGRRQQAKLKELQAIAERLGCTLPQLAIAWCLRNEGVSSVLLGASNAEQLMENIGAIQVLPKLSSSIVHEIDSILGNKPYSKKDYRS
- assayProcedure: KvBeta enzyme negative modulators, primary screen, biochemical, NADPH fluorescence (AID 622);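 also: slope of raw intensity against log time taken from 70 to 1610 s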
- conditionContext: recombinant KvBeta, 4-cyanobenzaldehyde reduction, at 10 µM, stronger effect = higher value
propertyMeasured: fluorescence slope
Answer with the value's number alone.

Solved cases (10 shown):
> print(dat)
                                    molecule  quantitativeresult
 1  CCC(C(=O)OCCN(CC)CC)c1ccccc1 (centres undefined)              -0.459
 2            CCN(CC)CCn1c(O)c(N=O)c2ccccc21              -0.482
 3  COc1ccc(/C(O)=C2/C(=O)C(=O)N(CCCN(C)C)C2c2ccccc2)cc1OC (centres undefined)              -0.386
 4   Cc1ccc(-c2nnc(OCCN3CCOCC3)c3ccccc23)cc1              -0.463
 5  CCOC(=O)c1oc2cc(O)cc(C)c2c(=O)c1-c1cscn1              -0.569
 6  COc1ccc(CCN2CCC(Nc3nc4ccccc4n3Cc3ccc(F)cc3)CC2)cc1              -0.513
 7  O=C1NC2c3ccccc3C(=O)N2c2c1cnn2-c1ccccc1 (centres undefined)              -0.425
 8           CCOC(=O)c1c(C(C#N)C#N)cc(C)nc1C              -0.509
 9  CCCCC1CC1C(=O)Nc1ccc(OC)c(OC)c1 (centres undefined)               -0.39
10  CN(C1CCS(=O)(=O)C1)S(=O)(=O)c1cccc2nsnc12 (centres undefined)              -0.513

## Input Consider the molecule COC(=O)c1[nH]c(C)c(/C(O)=C2\C(=O)C(=O)N(CCN3CCOCC3)C2c2cccnc2)c1C (centres undefined) and give its measured fluorescence slope.
## Output -0.46

## Input Consider the molecule `COc1cc(C(=O)OCCN2CCCCC2)ccc1O` and give its measured fluorescence slope.
## Output -0.493

## Input Consider the molecule `CCCCCCOC(=O)CCn1[nH]c(=O)c2ccccc2c1=O` and give its measured fluorescence slope.
## Output -0.492

## Input Consider the molecule COC(=O)CC1=C(C(=O)OC)C(c2ccc3c(c2Cl)OCO3)C(C#N)=C(N)O1 (centres undefined) and give its measured fluorescence slope.
## Output -0.319

## Input Consider the molecule `Cn1c(=O)c2c(nc(NCc3ccc4c(c3)OCO4)n2Cc2ccc(F)cc2)n(C)c1=O` and give its measured fluorescence slope.
## Output -0.511

----------
- assayProcedure: inhibitors of poly I:C-induced TLR3 signaling, primary screen, cell-based, poly I:C stimulus, luciferase, 10K MLSCN set (AID 602277)
- conditionContext: HEK293-TLR3 RL24 IRF3 luciferase reporter, at 10 µM, stronger effect = higher value
propertyMeasured: inhibition (%)
Report the figure in % without appending any unit label.

Solved cases (3 shown):
> print(dat)
                                   molecule  readoutunit  quantitativeresult
1  C[C@]12CC[C@@H]3c4ccc(OC(=O)c5ccccc5)cc4CC[C@H]3[C@@H]1CC[C@@H]2O            %                33.1
2  CC(C)C[C@H](NC(=O)[C@@H]1O[C@H]1C(=O)O)C(=O)NCCCCN=C(N)N            %                45.3
3  OCCN1CCN(CCCN2c3ccccc3Sc3ccc(Cl)cc32)CC1            %                40.7

## Input Consider the molecule `C[C@@H]1CCC[C@H](C)N1NC(=O)c1ccc(Cl)c(S(N)(=O)=O)c1` and give its measured inhibition.
## Output 20

## Input Consider the molecule `CSc1ccccc1NC(=O)c1c(Br)cnn1C` and give its measured inhibition.
## Output 4.72

## Input Consider the molecule `CC(C)N=c1cc2n(-c3ccc(Cl)cc3)c3ccccc3nc-2cc1Nc1ccc(Cl)cc1` and give its measured inhibition.
## Output 33.1

## Input Consider the molecule COc1ccc(C2CC(=O)C(C=NCCN3CCOCC3)=C(O)C2)cc1 (stereo unspecified) and give its measured inhibition.
## Output 20.5

## Input Consider the molecule `NS(=O)(=O)c1ccc(C(=O)O)cc1` and give its measured inhibition.
## Output -18

## Input Consider the molecule `CCCN(CCC)S(=O)(=O)c1ccc(C(=O)O)cc1` and give its measured inhibition.
## Output 13.7

## Input Consider the molecule `CC(=O)N=c1sc(S(N)(=O)=O)nn1C` and give its measured inhibition.
## Output 15.9

## Input Consider the molecule `CCN(CC)S(=O)(=O)c1cccc2c(N(C)C)cccc12` and give its measured inhibition.
## Output -4.09

## Input Consider the molecule `Cn1nnc2c(sc3nc(N4CCOCC4)c4c(c32)CCCC4)c1=O` and give its measured inhibition.
## Output -2.11
